Test system: Hepatotoxicity
Test readout: HepSE_liver function tests abnormal
Format: numeric value only, no unit, no commentary.

* COc1cc(C(=O)NS(=O)(=O)c2ccccc2C)ccc1Cc1cn(C)c2ccc(NC(=O)OC3CCCC3)cc12 [ZAFIRLUKAST] | 0
* CS(=O)(=O)OCCCCOS(C)(=O)=O [BUSULFAN] | 0

Proceed to the following item.
In: Name the recorded HepSE_liver function tests abnormal for C[C@H]1c2cccc(O)c2C(=O)C2=C(O)[C@]3(O)C(=O)C(C(N)=O)=C(O)[C@@H](N(C)C)[C@@H]3[C@@H](O)[C@@H]21.O [DOXYCYCLINE] .
Out: 0

* * *

Tested on: Hepatotoxicity
HepSE_cholelithiasis by entry:

A selection of reference data follows.
* CCC(=O)[C@@]1(C)[C@H](C)C[C@H]2[C@@H]3CCC4=CC(=O)C=C[C@]4(C)[C@H]3[C@@H](O)C[C@@]21C [RIMEXOLONE] | 0
* CCCCC(=O)N(Cc1ccc(-c2ccccc2-c2nnn[nH]2)cc1)[C@H](C(=O)O)C(C)C | 0
* CC(C)NCC(O)c1ccc(NS(C)(=O)=O)cc1 (stereo not given) [SOTALOL] | 0
* COc1ccc(CCN(C)CCCC(C#N)(c2ccc(OC)c(OC)c2)C(C)C)cc1OC (stereo not given) | 0

Please find the next compound below.
In: Looking for the measured HepSE_cholelithiasis of CCCN(CCC)CCc1cccc2c1CC(=O)N2 [ROPINIROLE] , can you help?
Out: 1

* * *

Tested on: Hepatotoxicity
Where a SMILES comes first, the peptide text is derived from it. Bridges are numbered along the chain shown (N, C = ends). [ ]: non-standard residue; d: D form. hArg = N=C(N)NCCCC[C@H](N)C(=O)O; Mpa = O=C(O)CCS
Test readout: HepSE_hepatic necrosis
Lab note: write the figure by itself, no unit.

• CO/N=C(\C(=O)N[C@@H]1C(=O)N2C(C(=O)[O-])=C(C[N+]3(C)CCCC3)CS[C@H]12)c1csc(N)n1 = 0
• c1ccc2[nH]c(-c3cscn3)nc2c1 = 0
• C[C@H]1C[C@H]2[C@@H]3CCC4=CC(=O)C=C[C@]4(C)[C@@]3(Cl)[C@@H](O)C[C@]2(C)[C@@]1(O)C(=O)CO = 0
• N=C(N)NCCCC[C@@H]1NC(=O)CCSSC[C@@H](C(N)=O)NC(=O)[C@@H]2CCCN2C(=O)[C@H](Cc2c[nH]c3ccccc23)NC(=O)[C@H](CC(=O)O)NC(=O)CNC1=O [EPTIFIBATIDE] ([Mpa][hArg]GDWPC-NH2; disulfide 1-7) = 0
• C=C(c1ccc(C(=O)O)cc1)c1cc2c(cc1C)C(C)(C)CCC2(C)C = 0

Switching to the query record.
In: Returns the measured HepSE_hepatic necrosis for the input molecule. Input: [H]/N=C(\N/C(=N/[H])NCCCCCCNC(=N)NC(=N)Nc1ccc(Cl)cc1)Nc1ccc(Cl)cc1
Out: 0

* * *

# HepSE_bilirubinemia per entry for Hepatotoxicity
Kindly provide the number alone.

• CC(=O)[C@@]1(O)CC[C@H]2[C@@H]3C=C(Cl)C4=CC(=O)[C@@H]5C[C@@H]5[C@]4(C)[C@H]3CC[C@@]21C = 0
• CC#C[C@]1(O)CC[C@H]2[C@@H]3CCC4=CC(=O)CCC4=C3[C@@H](c3ccc(N(C)C)cc3)C[C@@]21C = 0

Switching to the query record.
In: Which HepSE_bilirubinemia is listed for C=CCN1CC[C@]23c4c5ccc(O)c4O[C@H]2C(=O)CC[C@@]3(O)[C@H]1C5 ?
Out: 0
